experiment: Toxicity liver stage against HepG2, at 10uM; type: cell-based; set-up: test concentration 10 uM, cell line HepG2-A16-CD81EGFP; conditions: human, HepG2-A16-CD81EGFP cells; read-out: INHIBITION
MEASUREMENT TYPE: cytotoxicity at 10 µM (%)
Form entry: value (%) — number only.

Quick note, cytotoxicity at 10 µM for OCCC1CN(c2ncnc3[nH]cnc23)CCN1Cc1ccccc1F (stereo unspecified) landed at 17

Quick note, cytotoxicity at 10 µM for O=c1oc(-c2cccs2)nn1CC(O)c1ccc(F)cc1 (stereo unspecified) landed at 20.4

Quick note, cytotoxicity at 10 µM for Cc1nnc(-c2cccc(N3CCC(NC(C)CC(C)C)CC3)c2)s1 (stereo unspecified) landed at 0.363

Quick note, cytotoxicity at 10 µM for CC(CNC(=O)c1cccc(-n2cccn2)n1)Cn1ccnc1 (stereo unspecified) landed at 7.73

Quick note, cytotoxicity at 10 µM for Cn1cnnc1SCC(=O)NC1CC(=O)N(CCc2ccccc2)C1 (stereo unspecified) landed at 3.03

Quick note, cytotoxicity at 10 µM for `O=C(O)c1ccccc1-c1ccc(CNC(=O)C2CCOCC2)cc1` landed at 1.33

---

Record form. Attribute: cytotoxicity at 10 µM. Fill in for each entry.
assay: Toxicity liver stage against HepG2, at 10uM; type: cell-based; design: test concentration 10 uM, cell line HepG2-A16-CD81EGFP; settings: human, HepG2-A16-CD81EGFP cells; read-out: INHIBITION
Form entry: value (%) — number only.

Quick note, cytotoxicity at 10 µM for CN(C)C(=O)N1CCC2(CCCN(Cc3cnn(C)c3)C2)C1 (centres undefined) landed at 4.91

Quick note, cytotoxicity at 10 µM for Cc1nc(CN2CCOC(Cn3cccn3)C2)nc2ccccc12 (centres undefined) landed at -24.8

Quick note, cytotoxicity at 10 µM for `CN1CCC(Cc2nc(-c3cnccn3)n(Cc3ccccc3)n2)CC1` landed at 1.21

Quick note, cytotoxicity at 10 µM for `CCc1noc(CN(CC(=O)N2CCCCC2)c2cccc(C)c2)n1` landed at -6.61

Quick note, cytotoxicity at 10 µM for CCOCCNC(=O)c1cccnc1N1CCCC1c1ccccn1 (centres undefined) landed at 4.65

Quick note, cytotoxicity at 10 µM for `Cc1noc(C)c1CN1CCn2cc(CN3CCCCC3)nc2C1` landed at 8.95

Quick note, cytotoxicity at 10 µM for `CN(C)S(=O)(=O)c1ccc(CNC(=O)c2cn3c(n2)CNCC3)cc1` landed at 16.9

Quick note, cytotoxicity at 10 µM for Cc1nc(CN2CCCC(NCc3c(C)nc4sccn34)C2)no1 (centres undefined) landed at 6.21

Quick note, cytotoxicity at 10 µM for `Cc1ccc(N2C[C@H]3CCN(Cc4ccncc4)C[C@H]3C2)nn1` landed at -111

Quick note, cytotoxicity at 10 µM for `O=C(c1cc[nH]n1)N1CCc2ncnc(N3CCSCC3)c2CC1` landed at -3.67

Quick note, cytotoxicity at 10 µM for `CCOCC(=O)N(C)c1ccc(F)c(Cl)c1` landed at -3.99

Quick note, cytotoxicity at 10 µM for `COCCNC(=O)CNC(=O)c1nc(Cc2c(Cl)cccc2Cl)no1` landed at 5.64

Quick note, cytotoxicity at 10 µM for `c1ccc2c(c1)CC(CNCc1ccncc1)(N1CCCCC1)C2` landed at -7.72

Quick note, cytotoxicity at 10 µM for c1ccc(-c2noc(CCNC3CCOC4(CCOCC4)C3)n2)nc1 (centres undefined) landed at -6.5

Quick note, cytotoxicity at 10 µM for `O=C(O)c1ccnc(-c2ccnc(NCCc3cscn3)n2)c1` landed at 0.852

Quick note, cytotoxicity at 10 µM for O=C(NCC1CCCCO1)c1ccc(-c2ccco2)[nH]c1=O (centres undefined) landed at -3.06

Quick note, cytotoxicity at 10 µM for `CCN1CCN(C(=O)Cn2ncc3c2c(C)nn3C(C)C)CC1` landed at 6.5

Quick note, cytotoxicity at 10 µM for O=C(c1cc2c(s1)CCOC2)N1CCCCC1Cn1cccn1 (centres undefined) landed at -6.52

Quick note, cytotoxicity at 10 µM for CC(C)S(=O)(=O)NCC(Cc1cccc(F)c1)N1CCNC1=O (centres undefined) landed at -1

Quick note, cytotoxicity at 10 µM for CC(=O)c1cccc(OCCCC(=O)NC(C#N)CC(C)C)c1 (centres undefined) landed at -41.3

Quick note, cytotoxicity at 10 µM for Cc1cnn(CC(C)NCc2csc(-c3ccsc3)n2)c1 (centres undefined) landed at -6.79

Quick note, cytotoxicity at 10 µM for `COc1c(CNCc2ccnc(N3CCOCC3)c2)c(C)nn1C` landed at -1.82

Quick note, cytotoxicity at 10 µM for O=C(NCCc1ccccn1)NC1CCN(c2ccccc2)C1=O (centres undefined) landed at -2.84

Quick note, cytotoxicity at 10 µM for `N#CCCNC(=O)c1ccn(-c2ccc3ccccn23)n1` landed at 3.82

---

assay: Toxicity liver stage against HepG2, at 10uM; type: cell-based; set-up: test concentration 10 uM, cell line HepG2-A16-CD81EGFP; settings: human, HepG2-A16-CD81EGFP cells; read-out: INHIBITION
MEASUREMENT TYPE: cytotoxicity at 10 µM (%)
Form entry: value (%) — number only.

Quick note, cytotoxicity at 10 µM for `Cc1ccc(C(=O)N2CCc3nc4c(C)csc4c(=O)n3CC2)cn1` landed at -7.33

Quick note, cytotoxicity at 10 µM for CC(NC(=O)NCCNc1cccc(F)c1C#N)c1cccs1 (configuration not stated) landed at -1.31

Quick note, cytotoxicity at 10 µM for Cc1ccc(CC(=O)N2CCN(C3CCOC3=O)CC2)cc1 (configuration not stated) landed at -18.7

Quick note, cytotoxicity at 10 µM for Cc1cc(C)n(CC(C)NC2CCN(Cc3cccc(O)c3)CC2)n1 (configuration not stated) landed at -2.01

Quick note, cytotoxicity at 10 µM for `CN(C)c1nc2c(c(N3CCc4c(c(CO)nn4C)C3)n1)CCNC2` landed at -5.72

Quick note, cytotoxicity at 10 µM for O=C(C1CCOc2ccccc2C1)N1Cc2cnn(CCO)c2C1 (configuration not stated) landed at 4.61

Quick note, cytotoxicity at 10 µM for `CCOC(=O)C1(Cc2ccc(Cl)cc2)CCN(Cc2ncc[nH]2)CC1` landed at -2.36

Quick note, cytotoxicity at 10 µM for CC(c1ccc(C(=O)NCCc2nc(N)cc(O)n2)o1)N1CCCCC1 (configuration not stated) landed at -8.9

Quick note, cytotoxicity at 10 µM for `CC[C@H]1CN(C(=O)CCn2c(C)cccc2=O)CC[C@@]1(C)O` landed at 8.51

Quick note, cytotoxicity at 10 µM for `COCCOc1ccc(F)cc1NCc1nc2ccccc2n1C` landed at 6.29

Quick note, cytotoxicity at 10 µM for `COc1cc2c(c(OC)c1OC)CCN(CCn1nc(C)cc1C)CC2` landed at 12.9

Quick note, cytotoxicity at 10 µM for Cc1cc(C)c2c(c1)C(NC(=O)CSCc1ccncc1)CCO2 (configuration not stated) landed at 4.17

Quick note, cytotoxicity at 10 µM for `CCCc1nc(CNc2ccc(F)c(F)c2)no1` landed at 8.93

Quick note, cytotoxicity at 10 µM for `CCN(CC)C(=O)Nc1cccc(Oc2ccccn2)c1` landed at 8.12

Quick note, cytotoxicity at 10 µM for Cc1[nH]ccc1C(=O)N1CCCC(c2nccn2Cc2cscn2)C1 (configuration not stated) landed at -17.5

Quick note, cytotoxicity at 10 µM for `CCCc1cc(CNC2CCN(c3cc(C(C)C)nc(C)n3)CC2)on1` landed at -13.6

Quick note, cytotoxicity at 10 µM for `CN(Cc1cc(C[C@@H]2C[C@H](N)C2(C)C)no1)c1ccccc1` landed at -1.8

Quick note, cytotoxicity at 10 µM for `O=C([C@@H]1COC[C@H]2CN(CC3CCCC3)C[C@H]21)N1CCOCC1` landed at 14.9

Quick note, cytotoxicity at 10 µM for `CC(C)c1nnc2n1CCN(C(=O)CN1CCc3sccc3C1)C2` landed at -4.97

Quick note, cytotoxicity at 10 µM for `CC(C)Cc1noc(CNc2cc3c(cc2Cl)OCCCO3)n1` landed at 6.48

Quick note, cytotoxicity at 10 µM for `CCN(Cc1ccc2c(c1)OCCO2)C(=O)c1ccc(C)[nH]c1=O` landed at -4.6

Quick note, cytotoxicity at 10 µM for `CC(C)Cc1cc(C(=O)NCCc2ccc(S(C)(=O)=O)cc2)[nH]n1` landed at -8.93

Quick note, cytotoxicity at 10 µM for `c1ccc2nc(N3CCCCC3)c(NCc3nnc4n3CCC4)nc2c1` landed at 2.48

Quick note, cytotoxicity at 10 µM for `N#Cc1ccccc1Cn1cncn1` landed at 13.1

Quick note, cytotoxicity at 10 µM for CN1CCOC(CNC(=O)CCCOCCc2ccccc2)C1 (configuration not stated) landed at -3.56

Quick note, cytotoxicity at 10 µM for `c1cc(CN2CC[C@@H]3[C@@H](CO[C@H]3CN3CCOCC3)C2)cs1` landed at -1.19

Quick note, cytotoxicity at 10 µM for `O=C(Nc1cccc(N2CCN(CC3CC3)CC2)c1)N1CCCC1` landed at 0.441

Quick note, cytotoxicity at 10 µM for Cc1noc(CN(C)CC2(O)CCCN(CCC3CCCCC3)C2=O)n1 (configuration not stated) landed at -3.73

Quick note, cytotoxicity at 10 µM for O=C(c1cnc(-c2cccs2)s1)N1CCCN2CCCC2C1 (configuration not stated) landed at -13.9

Quick note, cytotoxicity at 10 µM for `O=C(C1CCOCC1)N1C[C@H](OCc2cccnc2)[C@H]2COC[C@H]21` landed at 1.99

Quick note, cytotoxicity at 10 µM for `Cc1nc(N2C[C@@H](CN3CCCN(C)CC3)[C@@H](CO)C2)c2ccsc2n1` landed at -6.56

Quick note, cytotoxicity at 10 µM for `O=C(NCc1ccccc1Cn1ccnc1)N1CCSCC1` landed at 3.9

Quick note, cytotoxicity at 10 µM for `O=C(NCCNC(=O)c1scnc1Cl)c1ccoc1` landed at -7.91

Quick note, cytotoxicity at 10 µM for `CN(C)CCN1C[C@@H]2CN(C(=O)c3ccsc3)C[C@@H]2C1=O` landed at -7.79

Quick note, cytotoxicity at 10 µM for `O=C1CCOC[C@]2(CN(Cc3ccccc3)C[C@H]2c2cccnc2)N1` landed at 4.73

Quick note, cytotoxicity at 10 µM for Cc1cc(N2CCCC(O)(CN(C)C(=O)CCN)C2)c2cnccc2n1 (configuration not stated) landed at -1.49

Quick note, cytotoxicity at 10 µM for CCc1nc2n(n1)CC(NCc1cnc(N(CC)CC)s1)CC2 (configuration not stated) landed at 7.39

Quick note, cytotoxicity at 10 µM for `CNC(=O)c1ccccc1-c1ccc(S(C)(=O)=O)cc1` landed at -2.07

Quick note, cytotoxicity at 10 µM for `N#Cc1cc2c(nc1O)CCCCC2` landed at -6.88

Quick note, cytotoxicity at 10 µM for Cc1cc(C)nc(C2CCCN2C(=O)c2cnccn2)n1 (configuration not stated) landed at 3.74

Quick note, cytotoxicity at 10 µM for `COCCN1C[C@@H]2[C@@H](OC)CCN(Cc3ccsc3)[C@@H]2C1` landed at 2.78

Quick note, cytotoxicity at 10 µM for `COc1cc(NCCNC(=O)c2cscc2C)cc(OC)c1` landed at 1.6

Quick note, cytotoxicity at 10 µM for CNC(=O)c1n[nH]c2c1C(c1cccc3[nH]ccc13)CC(=O)N2 (configuration not stated) landed at 4.06

Quick note, cytotoxicity at 10 µM for O=C(COC1CCCC1)NC(C(=O)Nc1cc[nH]n1)c1ccccc1 (configuration not stated) landed at -10.7

Quick note, cytotoxicity at 10 µM for CCN1CC2(CC1=O)CN(C(=O)c1ccoc1)CCN(C(=O)N(C)C)C2 (configuration not stated) landed at 4.26

Quick note, cytotoxicity at 10 µM for `CCN1CCCC12CCN(C(=O)c1ccsc1)CC2` landed at -152

Quick note, cytotoxicity at 10 µM for Cc1csc(N2CCN(CC(=O)Nc3nncs3)CC2C)n1 (configuration not stated) landed at -7.44
